# Test system: Rattus norvegicus
# assay: Inhibition of ovum implantation in sc dosed inseminated rat
# Format: functional
Simple rule here: ED50 less than 1 mg/kg is Criterion met, otherwise Criterion not met.

molecule	assigned_class
CC(C)C[C@H]1C(=O)N2CCC[C@H]2[C@]2(O)O[C@](NC(=O)[C@@H]3C=C4c5cccc6[nH]c(Br)c(c56)C[C@H]4N(C)C3)(C(C)C)C(=O)N12 [BROMOCRIPTINE]	Criterion met
CN1C[C@H](CC#N)C[C@@H]2c3cccc4[nH]c(Cl)c(c34)C[C@H]21 [LERGOTRILE]	Criterion not met
CN1C[C@H](CSc2ccccn2)C=C2c3cccc4[nH]cc(c34)C[C@H]21 [TIOMERGINE]	Criterion not met
CN1C[C@@H](CC#N)C[C@@H]2c3cccc4[nH]cc(c34)C[C@H]21 [DELERGOTRILE]	Criterion not met

Data credit: ChEMBL document CHEMBL3271990
